// data source = patent US20190389910A1

# Measured on: human recombinant integrin αvβ5 (αv extracellular domain-acidic leucine zipper-His×6 with β5 extracellular domain-basic leucine zipper) (human) (UniProt P06756)
# Sequence (P06756 other isoform, or with tags, fused parts or gaps, chain 1 of 2): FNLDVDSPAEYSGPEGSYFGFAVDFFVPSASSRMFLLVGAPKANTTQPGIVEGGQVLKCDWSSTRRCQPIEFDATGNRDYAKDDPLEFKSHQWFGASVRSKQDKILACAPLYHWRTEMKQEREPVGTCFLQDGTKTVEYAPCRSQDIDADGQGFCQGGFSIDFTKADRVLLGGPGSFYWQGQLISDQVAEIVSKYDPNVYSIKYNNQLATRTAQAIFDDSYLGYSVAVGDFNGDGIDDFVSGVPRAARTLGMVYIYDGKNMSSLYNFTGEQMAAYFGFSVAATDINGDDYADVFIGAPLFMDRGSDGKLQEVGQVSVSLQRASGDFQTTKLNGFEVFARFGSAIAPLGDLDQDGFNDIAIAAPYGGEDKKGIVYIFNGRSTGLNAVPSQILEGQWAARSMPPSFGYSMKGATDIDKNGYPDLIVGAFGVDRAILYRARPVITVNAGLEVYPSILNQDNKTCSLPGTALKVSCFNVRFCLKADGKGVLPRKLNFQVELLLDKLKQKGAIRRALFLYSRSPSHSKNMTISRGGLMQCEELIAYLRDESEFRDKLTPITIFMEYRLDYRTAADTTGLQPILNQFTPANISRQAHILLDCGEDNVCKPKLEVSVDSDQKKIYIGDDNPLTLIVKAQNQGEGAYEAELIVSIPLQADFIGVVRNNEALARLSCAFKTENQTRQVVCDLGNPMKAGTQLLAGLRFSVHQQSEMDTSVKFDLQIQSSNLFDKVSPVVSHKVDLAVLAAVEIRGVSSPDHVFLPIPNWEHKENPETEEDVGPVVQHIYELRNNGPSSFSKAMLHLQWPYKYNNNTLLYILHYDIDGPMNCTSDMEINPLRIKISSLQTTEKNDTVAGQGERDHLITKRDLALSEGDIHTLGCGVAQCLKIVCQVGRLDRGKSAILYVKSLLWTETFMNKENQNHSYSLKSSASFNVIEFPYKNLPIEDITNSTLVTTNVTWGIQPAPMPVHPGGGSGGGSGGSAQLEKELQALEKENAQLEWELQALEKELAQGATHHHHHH
# Sequence (chain, as listed by the source, chain 2 of 2): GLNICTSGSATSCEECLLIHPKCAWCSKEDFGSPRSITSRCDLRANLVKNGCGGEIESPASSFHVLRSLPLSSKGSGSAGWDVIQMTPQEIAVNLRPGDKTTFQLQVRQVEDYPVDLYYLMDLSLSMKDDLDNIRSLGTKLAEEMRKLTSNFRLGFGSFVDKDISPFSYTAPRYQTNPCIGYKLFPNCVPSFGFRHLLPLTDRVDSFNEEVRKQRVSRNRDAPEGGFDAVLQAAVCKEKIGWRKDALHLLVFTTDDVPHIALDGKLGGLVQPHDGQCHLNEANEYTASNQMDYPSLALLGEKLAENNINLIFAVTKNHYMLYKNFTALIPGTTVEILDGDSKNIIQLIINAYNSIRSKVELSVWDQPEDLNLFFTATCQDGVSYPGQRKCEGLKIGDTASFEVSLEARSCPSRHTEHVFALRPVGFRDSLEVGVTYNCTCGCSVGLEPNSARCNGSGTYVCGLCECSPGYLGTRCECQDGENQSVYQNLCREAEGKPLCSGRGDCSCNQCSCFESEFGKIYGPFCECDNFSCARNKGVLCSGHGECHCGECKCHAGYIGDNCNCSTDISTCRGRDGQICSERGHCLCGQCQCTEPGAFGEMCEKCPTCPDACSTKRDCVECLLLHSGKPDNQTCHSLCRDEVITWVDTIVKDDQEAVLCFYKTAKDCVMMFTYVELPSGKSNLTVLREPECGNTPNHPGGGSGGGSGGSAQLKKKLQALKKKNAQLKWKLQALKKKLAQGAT
# Experiment summary: BLI (Octet), antibody captured on anti-human IgG Fc (AHC) biosensor, integrin αvβ5 3.1-100 nM as analyte, divalent cations
Readout label: koff

5#3-Ras03 (antibody, part only; not given: RT22 heavy chain, constant regions, V domains shown, not shown: another chain or arm of the molecule; a dimerising Fc or GST; large carriers; small tags and cut ends, chain 1: disulfide bond Cys6-Cys16 closes the 5#3 cyclic peptide) VL: SRDETCTPRGDTFAICMGSSSNDIQMTQSPSSLSASVGDRVTITCKSSQSLLNSRDGKNYLAWYQQKPGKAPKLLIYWASTRESGVPSRFSGSGSGTDFTLTISSLQPEDFATYFCQQYWYWMYTFGQGTKVEIK
0.000163 s⁻¹

What value of koff has been reported for the following binder? in4-Ras03 (antibody, part only; not given: RT22 heavy chain, light constant, V domains shown, not shown: another chain or arm of the molecule; a dimerising Fc or GST, chain 1: disulfide bond Cys6-Cys10 closes the in4 cyclic peptide) VL: DGVRQCRGDCFDGPLMGSSSNDIQMTQSPSSLSASVGDRVTITCKSSQSLLNSRDGKNYLAWYQQKPGKAPKLLIYWASTRESGVPSRFSGSGSGTDFTLTISSLQPEDFATYFCQQYWYWMYTFGQGTKVEIK
0.000166 s⁻¹
